Each entry below carries its reported Kd.
- target.desc: T1, rat α-CGRP (1-37) (rat, C-terminal amide; N-terminal biotin when captured on the SA chip)
- T1 construct: also called rat α (1-37); α-rat
- T1 peptide: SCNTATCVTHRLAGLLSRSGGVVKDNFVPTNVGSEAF
- procedure.text: Biacore, 37°C, Fab over CGRP on SA chip
Numeric only. Scale: µM

Some solved cases for reference:
Query Kd for G1 variant M42 Fab (Fab, V domains shown, Fab; constant domains as m1) VH: EVQLVESGGGLVQPGGSLRLSCAASGFTFSNYWISWVRQAPGKGLEWVAEIRSKSDNSATFYAEAVKGRFTISRDNAKNSLYLQMNSLRAEDTAVYYCTVYFDYGLAIQNYWGQGTLVTVSS VL: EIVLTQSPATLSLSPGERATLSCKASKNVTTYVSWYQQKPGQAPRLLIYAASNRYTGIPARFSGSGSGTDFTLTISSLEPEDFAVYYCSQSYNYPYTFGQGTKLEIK 0.418

# return recorded Kd for input G1 variant M30 Fab (Fab, V domains shown, Fab; constant domains as m1) VH: EVQLVESGGGLVQPGGSLRLSCAASGFTFSNYWISWVRQAPGKGLEWVAEIRSKSDESATHYAEAVKGRFTISRDNAKNSLYLQMNSLRAEDTAVYYCTVYFDYGLAIQNYWGQGTLVTVSS VL: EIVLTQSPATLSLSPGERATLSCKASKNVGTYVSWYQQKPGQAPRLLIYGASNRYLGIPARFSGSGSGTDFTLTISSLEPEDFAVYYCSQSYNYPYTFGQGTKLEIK 0.354

Write down Kd measured for item G1 variant M51 Fab (Fab, V domains shown, Fab; constant domains as m1; printed L561 read as L56I) VH: EVQLVESGGGLVQPGGSLRLSCAASGFTFSNYWISWVRQAPGKGLEWVAEIRSKSDGSATHYAEAVKGRFTISRDNAKNSLYLQMNSLRAEDTAVYYCTVYFDYGLAIQNYWGQGTLVTVSS VL: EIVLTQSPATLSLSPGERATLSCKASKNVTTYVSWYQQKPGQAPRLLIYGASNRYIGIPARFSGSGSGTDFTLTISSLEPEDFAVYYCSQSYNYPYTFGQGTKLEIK 0.0656

Input G1 variant M44 Fab (Fab, V domains shown, Fab; constant domains as m1) VH: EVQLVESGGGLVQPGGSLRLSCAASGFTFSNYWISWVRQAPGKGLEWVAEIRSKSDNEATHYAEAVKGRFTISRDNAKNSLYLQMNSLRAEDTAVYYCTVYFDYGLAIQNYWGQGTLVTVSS VL: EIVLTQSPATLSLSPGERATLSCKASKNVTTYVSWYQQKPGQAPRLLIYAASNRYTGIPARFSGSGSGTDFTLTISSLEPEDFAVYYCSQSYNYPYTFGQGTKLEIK , output reported Kd. 0.443

Hello, please tell me recorded Kd for this one: G1 variant M65 Fab (Fab, V domains shown, Fab; constant domains as m1) VH: EVQLVESGGGLVQPGGSLRLSCAASGFTFSNYWISWVRQAPGKGLEWVAEIRSKSDCSATHYAEAVKGRFTISRDNAKNSLYLQMNSLRAEDTAVYYCTVYFDYGLAIQNYWGQGTLVTVSS VL: EIVLTQSPATLSLSPGERATLSCKASKNVGTYVSWYQQKPGQAPRLLIYAASNRYIGIPARFSGSGSGTDFTLTISSLEPEDFAVYYCSQSYNYPYTFGQGTKLEIK 0.226

Consider the binder G1 variant M7 Fab (Fab, V domains shown, Fab; constant domains as m1) VH: EVQLVESGGGLVQPGGSLRLSCAASGFTFSNYWISWVRQAPGKGLEWVAEIRSESDASATHYAEAVKGRFTISRDNAKNSLYLQMNSLRAEDTAVYYCNCYFDYGLAIQNYWGQGTLVTVSS VL: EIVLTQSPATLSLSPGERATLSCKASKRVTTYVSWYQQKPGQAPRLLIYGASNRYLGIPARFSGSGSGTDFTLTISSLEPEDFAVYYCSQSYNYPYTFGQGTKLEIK and give its recorded Kd. 0.051

Output measured Kd for this item: G1 variant M39 Fab (Fab, V domains shown, Fab; constant domains as m1) VH: EVQLVESGGGLVQPGGSLRLSCAASGFTFSNYWISWVRQAPGKGLEWVAEIRSESDNYATHYAEAVKGRFTISRDNAKNSLYLQMNSLRAEDTAVYYCTVYFDYGLAIQNYWGQGTLVTVSS VL: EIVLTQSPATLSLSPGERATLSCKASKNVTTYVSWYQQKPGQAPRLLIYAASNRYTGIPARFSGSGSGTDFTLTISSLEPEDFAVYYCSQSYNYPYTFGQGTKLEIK 0.553

Please give the documented Kd of G1 variant M63 Fab (Fab, V domains shown, Fab; constant domains as m1) VH: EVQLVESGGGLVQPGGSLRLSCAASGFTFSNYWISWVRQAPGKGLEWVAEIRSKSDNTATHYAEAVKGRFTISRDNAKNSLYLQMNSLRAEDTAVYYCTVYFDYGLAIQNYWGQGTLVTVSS VL: EIVLTQSPATLSLSPGERATLSCKASKNVGTYVSWYQQKPGQAPRLLIYAASNRYLGIPARFSGSGSGTDFTLTISSLEPEDFAVYYCSQSYNYPYTFGQGTKLEIK 0.147

Give Kd for G1 variant M72 Fab (Fab, V domains shown, Fab; constant domains as m1) VH: EVQLVESGGGLVQPGGSLRLSCAASGFTFSNYWISWVRQAPGKGLEWVAEIRSKSDASATHYAEAVKGRFTISRDNAKNSLYLQMNSLRAEDTAVYYCTVYFDYGLAIQNYWGQGTLVTVSS VL: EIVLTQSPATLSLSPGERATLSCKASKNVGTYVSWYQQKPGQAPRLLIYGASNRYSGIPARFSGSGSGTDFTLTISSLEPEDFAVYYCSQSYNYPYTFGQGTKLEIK 0.219

New cases:
Specify Kd for G1 variant M29 Fab (Fab, V domains shown, Fab; constant domains as m1) VH: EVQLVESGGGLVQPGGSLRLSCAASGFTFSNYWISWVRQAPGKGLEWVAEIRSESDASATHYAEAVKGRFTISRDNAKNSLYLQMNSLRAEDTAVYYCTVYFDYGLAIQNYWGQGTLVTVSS VL: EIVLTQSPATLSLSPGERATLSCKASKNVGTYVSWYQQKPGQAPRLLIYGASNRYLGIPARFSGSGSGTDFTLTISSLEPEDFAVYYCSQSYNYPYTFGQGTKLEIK and stop. 0.199
